These entries and their values trace back to ChEMBL document CHEMBL4190216.

Test system: PC-3
Measurement Protocol: Potency index, ratio of curcumin IC50 to test compound IC50 for human PC3 cells
Assay type: functional
With a cut-off of 70, any Ratio IC50 strictly below it is called true (1); any Ratio IC50 meeting it or above is called false (0).

# Compound, Group
measured = [
    ("CCC(C)n1ccnc1/C=C/C(=O)/C=C/c1cc(C)on1 (centres undefined)", "false (0)"),
    ("Cc1cc(/C=C/C(=O)/C=C/c2ccccn2)no1", "true (1)"),
    ("CCCCn1ccnc1/C=C/C(=O)/C=C/c1nc2ccccc2n1CCCC", "false (0)"),
    ("Cc1nc(-c2ccncc2)sc1/C=C/C(=O)/C=C/c1nccn1C(C)C", "true (1)"),
    ("Cc1nc(C(F)(F)F)c(/C=C/C(=O)/C=C/c2nc3ccccc3n2C)s1", "true (1)"),
    ("COc1cc(/C=C/C(=O)/C=C/c2ccccn2)cc(OC)c1OC", "true (1)"),
    ("CCC(C)n1ccnc1/C=C/C(=O)/C=C/c1nc2ccccc2n1C(C)CC (centres undefined)", "false (0)"),
    ("CCCC(C)n1ccnc1/C=C/C(=O)/C=C/c1nc2ccccc2n1C(C)CCC (centres undefined)", "false (0)"),
    ("CCn1c(/C=C/C(=O)/C=C/c2ccccn2)nc2ccccc21", "false (0)"),
    ("CCC(C)n1ccnc1/C=C/C(=O)/C=C/c1cccc(C)n1 (centres undefined)", "false (0)"),
    ("CCC(C)n1ccnc1/C=C/C(=O)/C=C/c1ccc(OC)c(OC)c1 (centres undefined)", "true (1)"),
    ("O=C(/C=C/c1ccccn1)/C=C/c1nccs1", "true (1)"),
    ("Cc1nc(C(F)(F)F)c(/C=C/C(=O)/C=C/c2nc3ccccc3n2C(C)C)s1", "false (0)"),
    ("CCn1c(/C=C/C(=O)/C=C/c2sc(C)nc2C(F)(F)F)nc2ccccc21", "false (0)"),
    ("CCC(C)n1ccnc1/C=C/C(=O)/C=C/c1ccccn1 (centres undefined)", "false (0)"),
    ("Cn1c(/C=C/C(=O)/C=C/c2ccccn2)nc2ccccc21", "true (1)"),
    ("Cc1cccc(/C=C/C(=O)/C=C/c2ccccn2)n1", "true (1)"),
    ("CC(C)n1c(/C=C/C(=O)/C=C/c2ccccn2)nc2ccccc21", "false (0)"),
    ("CC(C)CCn1ccnc1/C=C/C(=O)/C=C/c1nc2ccccc2n1CCC(C)C", "false (0)"),
    ("CCCn1ccnc1/C=C/C(=O)/C=C/c1nc2ccccc2n1CCC", "false (0)"),
    ("COc1ccc(/C=C/C(=O)/C=C/c2ccccn2)cc1OC", "true (1)"),
    ("CCC(C)n1ccnc1/C=C/C(=O)/C=C/c1cc(OC)c(OC)c(OC)c1 (centres undefined)", "true (1)"),
    ("CCCn1c(/C=C/C(=O)/C=C/c2ccccn2)nc2ccccc21", "false (0)"),
]
